Values compiled from ChEMBL document CHEMBL5614434.

Assay: AUClast in male C57/6J mouse at 15 mg/kg, ip measured upto 24 hrs by LC-MS/MS analysis
Type: ADME, organism-based
Settings: in vivo
outcome_measure: AUC(0-t) at 24 h (ng·h/mL)
Write the number in ng·h/mL without appending the unit.

Kindly indicate its recorded AUC(0-t) at 24 h. Item: `CCC(CC)O[C@@H]1C=C(C(=O)OCCN2CCOCC2)C[C@H](N)[C@H]1NC(C)=O`
2080

---

Test: Metabolic stability in mouse liver microsomes assessed as parent compound remaining measured after 15 mins in absence of NADPH regenerating system by LC-MS/MS analysis
Type: ADME, Microsome
Conditions: read-out: Stability
outcome_measure: remaining at 0.25 h (%)
Hi! Could you send only the number? It should be in %, unit omitted.

Report remaining at 0.25 h for `CCC(CC)O[C@@H]1C=C(C(=O)OCCN2CCOCC2)C[C@H](N)[C@H]1NC(C)=O`
106
